Entries and their measured log10 of TGI follow.
System: HCT-15 colon
protocol-text: NCI tumour cell line growth inhibition, 48 h
Record value = log10 of TGI given in µM.

Please look up its log10 of TGI: "CNC(=O)OCc1nc(SSC(C)(C)C)n(C)c1COC(=O)NC" 0.62

Please look up its log10 of TGI: "CNC(=O)OCc1c(COC(=O)NC)c(-c2ccc(-c3ccccc3)cc2)n(C)c1C" 0.97

Please look up its log10 of TGI: COc1cc(C2c3cc4c(cc3OC(C)(N3CCCC3)C2C)OCO4)cc(OC)c1OC (stereo not given) 1.05

Please look up its log10 of TGI: "Nc1ncc(-c2cnn(C3CCNCC3)c2)cc1-c1nc2cc(Cl)ccc2o1" 0.23

Please look up its log10 of TGI: O=C1/C(=C/C=C/c2ccccc2)CCC1CNc1ccccc1 (stereo not given) 1.70

Please look up its log10 of TGI: "C#CCn1c(=O)c(I)cn(/C(=C/C(=O)OCC)C(=O)OCC)c1=O" 0.90

---

Entries and their measured TGI follow.
Test system: OVCAR-3 ovarian
protocol-text: NCI tumour cell line growth inhibition, 48 h

>>> assay_value("O=C(O)c1ccc(CN2CCC(CN[C@@H]3C[C@H]3c3ccccc3)CC2)cc1")
"> 100 µM"

Please look up its TGI: Cc1ccc(C2(O)CSC(=NC34CC5CC(CC(C5)C3)C4)N2C(P(=O)(O)O)P(=O)(O)O)cc1 (stereo not drawn) > 100 µM

Please look up its TGI: CCOC1C(Br)Cn2c(=O)c3cc4ccccc4cc3c(=O)n2C1C (stereo not drawn) > 100 µM

---

Entries and their measured TGI follow.
Tested on: IGROV1 ovarian
protocol-text: NCI tumour cell line growth inhibition, 48 h

Consider the reported TGI for these compounds:
>>> assay_value("CCCCCCCCCC[C@@H](OC(C)=O)[C@@H]1CC[C@@H]([C@@H]2CC[C@@H]([C@@H](O)CC#C/C=C/CCCCCCC[C@@]3(Sc4ccccc4)C[C@H](C)OC3=O)O2)O1")
"> 10 µM"
>>> assay_value("CC(C)(C)C1=C(Br)C(C(C)(C)C)OP1(=O)O (centres undefined)")
"> 100 µM"
>>> assay_value("C=CC[P@]1(=O)O[C@H](c2ccccc2)[C@H](C)N1C")
"> 100 µM"
>>> assay_value("CSc1c(C(=O)Nc2ccccc2)c(N)n(N)c(=O)c1C#N")
"> 100 µM"

Please look up its TGI: "CCOc1cc(C(C)(C)C)ccc1C1=N[C@H](c2ccc(Cl)cc2)[C@H](c2ccc(Cl)cc2)N1C(=O)N1CCN(CC#Cc2cccc3c2CN([C@@H]2CCC(=O)NC2=O)C3=O)CC1" > 33.5 µM

Please look up its TGI: "C[C@]12CC=CC(=O)[C@@]1(C)CCC(=O)C2" > 100 µM

---

Test system: TK-10 renal
protocol-text: NCI tumour cell line growth inhibition, 48 h; in the data active = GI50 below about 0.43 µM; inactive = the rest
Valid outcomes are listed here; reply with one: active, inactive

Reference set, count: 2
>>> answer_label("C=CC(=O)N1CCC(Oc2cc3c(Nc4ccc(Cl)c(Cl)c4F)ncnc3cc2OC)CC1")
"active"
>>> answer_label("Cc1cn(-c2cc(NC(=O)c3cccc(C#Cc4cccc5[nH]nc(N)c45)c3)cc(C(F)(F)F)c2)cn1")
"inactive"

Hi, sorry to bother you, what did the test record for "[N-]=[N+]=NCCCn1c2c(c3ccc([N+](=O)[O-])cc3c1=O)C(=O)c1ccccc1-2" ? inactive
